Target: T1, recombinant rat MASP1 active protease (amino acids 302-704, C-terminal His Tag) (rat, UniProt Q8CHN8 302-704)
T1 sequence: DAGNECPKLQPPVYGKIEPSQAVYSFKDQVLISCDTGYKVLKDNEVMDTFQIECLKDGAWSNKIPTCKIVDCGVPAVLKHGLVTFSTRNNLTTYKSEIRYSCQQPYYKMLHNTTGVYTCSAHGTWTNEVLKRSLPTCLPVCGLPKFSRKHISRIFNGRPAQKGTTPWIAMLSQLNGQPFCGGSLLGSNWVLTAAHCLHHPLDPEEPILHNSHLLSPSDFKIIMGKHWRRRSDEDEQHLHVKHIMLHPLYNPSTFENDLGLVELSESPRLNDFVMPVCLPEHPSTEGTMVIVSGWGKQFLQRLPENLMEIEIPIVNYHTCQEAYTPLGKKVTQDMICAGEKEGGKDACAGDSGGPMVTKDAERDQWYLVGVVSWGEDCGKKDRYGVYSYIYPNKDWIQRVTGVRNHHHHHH
Assay: cell-based or functional assay
Bridge positions count the residues as written; N and C are the ends. Square brackets hold non-standard residues; d marks the D form. Ends that are not written are not given here. Oic = O=C(O)[C@@H]1C[C@@H]2CCCC[C@@H]2N1; NMeC = CN[C@@H](CS)C(=O)O
measurementName: rat MASP1 IC50 (nM)
Please state the figure in nM; there is no need to write the unit.

Looking for the measured rat MASP1 IC50 of AICSRSLP[Oic]I[NMeC]IP-NH2 (disulfide 3-11; N-terminus assumed; SMILES CC[C@H](C)[C@H](NC(=O)[C@H](C)N)C(=O)N[C@H]1CSSC[C@@H](C(=O)N[C@H](C(=O)N2CCC[C@H]2C(N)=O)[C@@H](C)CC)N(C)C(=O)[C@H]([C@@H](C)CC)NC(=O)[C@@H]2C[C@@H]3CCCC[C@@H]3N2C(=O)[C@@H]2CCCN2C(=O)[C@H](CC(C)C)NC(=O)[C@H](CO)NC(=O)[C@H](CCCNC(=N)N)NC(=O)[C@H](CO)NC1=O) [Example 123: AIC+SRSLP-(Oic)-I-((N-Me)C)+IP-NH2] , can you help?
59
